# tested_system: Tyrosine-protein kinase Fgr (Homo sapiens) (UniProt P09769);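 also: reported values are mean percent inhibition of FGR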
# Sequence (P09769 2-529 limits assumed): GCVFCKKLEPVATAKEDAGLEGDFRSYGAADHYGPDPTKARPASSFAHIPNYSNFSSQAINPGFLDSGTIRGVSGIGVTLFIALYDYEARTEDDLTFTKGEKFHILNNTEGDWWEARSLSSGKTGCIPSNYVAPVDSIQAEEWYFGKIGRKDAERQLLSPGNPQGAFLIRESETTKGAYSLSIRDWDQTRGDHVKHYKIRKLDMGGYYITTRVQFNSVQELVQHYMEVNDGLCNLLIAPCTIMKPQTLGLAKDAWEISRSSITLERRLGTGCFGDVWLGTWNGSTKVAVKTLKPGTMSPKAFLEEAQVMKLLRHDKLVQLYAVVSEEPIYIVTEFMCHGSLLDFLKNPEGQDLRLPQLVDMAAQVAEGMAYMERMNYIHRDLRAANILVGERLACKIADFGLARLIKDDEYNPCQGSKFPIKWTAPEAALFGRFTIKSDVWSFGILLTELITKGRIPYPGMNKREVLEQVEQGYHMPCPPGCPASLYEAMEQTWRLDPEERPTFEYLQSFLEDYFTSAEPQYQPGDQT
# settings: at 0.1 µM
quantity_name: inhibition (%)

[
  {
    "compound": "CC1=C(C(=O)Nc2ccc3[nH]ncc3c2)C(c2ccc(F)cc2)N=C(c2ccc(C(F)(F)F)nc2)N1 (stereo unspecified)",
    "observed": 1.36
  },
  {
    "compound": "N#Cc1cccc(Nc2ncc(-c3ccccc3)o2)c1",
    "observed": 5.47
  },
  {
    "compound": "Cc1cc(O)cc(C)c1/C=C/c1cncc(C(=O)OC(C)(C)C)c1",
    "observed": 8.01
  },
  {
    "compound": "Cn1c(-c2nonc2N)nc2cnccc21",
    "observed": 2.79
  },
  {
    "compound": "CCCNc1cccc(-n2ncc3c(N/N=C/c4ccncc4)ncnc32)c1",
    "observed": 18.9
  },
  {
    "compound": "CCS(=O)(=O)c1ccc(OC)c(Nc2ncc(-c3cccc(C(C)=O)c3)o2)c1",
    "observed": 13.2
  },
  {
    "compound": "COC(=O)Nc1nc2cc(Oc3ccc(NC(=O)Nc4ccccc4)cc3)ccc2[nH]1",
    "observed": 4.41
  },
  {
    "compound": "Fc1cccc(COc2ccc(Nc3ncncc3C#Cc3ccccc3)cc2Cl)c1",
    "observed": 5.41
  },
  {
    "compound": "CCn1c(-c2nonc2N)nc2cncc(C(=O)NCCNC)c21",
    "observed": 1.3
  },
  {
    "compound": "COc1ccc(Nc2ncc(-c3ccccc3)o2)cc1OC",
    "observed": 3.96
  },
  {
    "compound": "COc1cc2c(cc1Nc1nc(Nc3cccc(F)c3C(N)=O)c3cc[nH]c3n1)N(C(=O)CN1CCN(C(C)C)CC1)CC2",
    "observed": 0.5
  },
  {
    "compound": "CS(=O)(=O)Nc1ccc(-c2ccc3c(NC(=O)C4CC4)n[nH]c3c2)cc1",
    "observed": 1.59
  },
  {
    "compound": "COc1cccc(-n2ncc3c(N/N=C/c4ccc(C(=O)NCCN(C)C)cc4)ncnc32)c1",
    "observed": 47.4
  },
  {
    "compound": "COc1cc(Nc2ncc(-c3ccccc3)o2)cc(OC)c1",
    "observed": 5.71
  },
  {
    "compound": "c1ccc(-c2n[nH]cc2-c2ccnc(-c3ccc(OCCn4ccnc4)cc3)c2)nc1",
    "observed": 0.78
  },
  {
    "compound": "N#Cc1ccc2c(-c3ccnc(NC4CC4)n3)c(-c3ccc(F)cc3)nn2c1",
    "observed": 1.68
  },
  {
    "compound": "Cc1c2ccc(N(C)c3ccnc(Nc4cccc(S(N)(=O)=O)c4)n3)cc2nn1C",
    "observed": 26
  },
  {
    "compound": "COc1cccc(Nc2nccc(-c3cnn4ncccc34)n2)c1",
    "observed": 7.08
  },
  {
    "compound": "O=C(O[C@H]1CN[C@H](C#Cc2cc3ncnc(Nc4ccc5c(cnn5Cc5ccccc5)c4)c3s2)C1)N1CCOCC1",
    "observed": 2.54
  },
  {
    "compound": "CC1(C)CC(n2cnc(-c3ccc(F)cc3)c2-c2ccnc(N)n2)CC(C)(C)N1",
    "observed": 0.26
  },
  {
    "compound": "O=C(O[C@H]1CN[C@H](C#Cc2cc3ncnc(Nc4ccc(OCc5cccc(F)c5)c(Cl)c4)c3s2)C1)N1CCOCC1",
    "observed": 4.25
  },
  {
    "compound": "CNC(=O)c1sc(-n2cnc3cc(OC)c(OC)cc32)cc1OCc1ccccc1C(F)(F)F",
    "observed": 4.08
  },
  {
    "compound": "CC(C)c1ccc(-c2cc(-c3c[nH]nc3-c3ccccn3)ccn2)cc1",
    "observed": 0.18
  },
  {
    "compound": "COc1c(C(N)=O)cc(-c2ccc(Cl)cc2)cc1-c1ccc(S(N)(=O)=O)cc1",
    "observed": 0.21
  },
  {
    "compound": "COC(=O)Nc1nc2ccc(Oc3ccc(NC(=O)Nc4cc(C(F)(F)F)ccc4F)cc3)cc2s1",
    "observed": 1.85
  },
  {
    "compound": "CN(C)CCNC(=O)Nc1ccc(N(C)c2ccnc(Nc3ccc(CS(C)(=O)=O)cc3)n2)cc1",
    "observed": 1.07
  },
  {
    "compound": "COc1ccc2ncn(-c3cc(O[C@H](C)c4ccccc4C(F)(F)F)c(C(N)=O)s3)c2c1",
    "observed": 0.34
  },
  {
    "compound": "CCS(=O)(=O)c1ccc(OC)c(Nc2ncc(-c3cccc(F)c3)o2)c1",
    "observed": 40.2
  },
  {
    "compound": "c1cnn2ncc(-c3ccnc(NCCCN4CCOCC4)n3)c2c1",
    "observed": 2.2
  },
  {
    "compound": "CN1CCC(n2cnc(-c3ccc(F)cc3)c2-c2ccnc(NCCO)n2)CC1",
    "observed": 5.33
  },
  {
    "compound": "FC(F)(F)CNc1nccc(-c2cnn3ncccc23)n1",
    "observed": 2.09
  }
]

Each recorded value in this set is attributed to ChEMBL document CHEMBL1961873.
